System: KB 3-1
Experiment: Cytotoxicity against human epidermoid carcinoma (KB3-1) cell line.
Format: functional, cell-based
pIC50: −log10 of the molar value.
# pIC50 annotations

sample.smiles: c1ccc(-c2ccc3[nH]c(-c4ccc5[nH]c(-c6ccc7[nH]cnc7c6)nc5c4)nc3c2)cc1
assayed.target: KB 3-1
pIC50: 6.24
//
sample.smiles: c1ccc(-c2ccc3[nH]c(-c4ccc5[nH]c(-c6ccc7[nH]cnc7c6)nc5c4)nc3c2)nc1
assayed.target: KB 3-1
pIC50: 7.30
//
sample.smiles: c1cncc(-c2ccc3[nH]c(-c4ccc5[nH]c(-c6ccc7[nH]cnc7c6)nc5c4)nc3c2)c1
assayed.target: KB 3-1
pIC50: 7.70
//
sample.smiles: c1cc(-c2ccc3[nH]c(-c4ccc5[nH]c(-c6ccc7[nH]cnc7c6)nc5c4)nc3c2)ccn1
assayed.target: KB 3-1
pIC50: 7.70

###

Tested on: RPMI 8402
Test: Cytotoxicity against Camptothecin-resistant (CPT -K5) cell line.
Type: functional, cell-based
Settings: Homo sapiens
pIC50: −log10 of the molar value.
quantity.name: pIC50

sample.smiles: c1cc(-c2ccc3[nH]c(-c4ccc5[nH]c(-c6ccc7[nH]cnc7c6)nc5c4)nc3c2)ccn1
qualifying.sign: =
value.observed: 5.60
--
sample.smiles: c1cncc(-c2ccc3[nH]c(-c4ccc5[nH]c(-c6ccc7[nH]cnc7c6)nc5c4)nc3c2)c1
qualifying.sign: =
value.observed: 5.60
--
sample.smiles: c1ccc(-c2ccc3[nH]c(-c4ccc5[nH]c(-c6ccc7[nH]cnc7c6)nc5c4)nc3c2)cc1
qualifying.sign: =
value.observed: 6.24
--
sample.smiles: CCCc1ccc2[nH]c(-c3ccc4[nH]c(-c5ccc6[nH]cnc6c5)nc4c3)nc2c1
qualifying.sign: =
value.observed: 4.70
--
sample.smiles: N#Cc1ccc2[nH]c(-c3ccc4[nH]c(-c5ccc6[nH]cnc6c5)nc4c3)nc2c1
qualifying.sign: <
value.observed: 4.60
--
sample.smiles: c1ccc2[nH]c(-c3ccc4[nH]c(-c5ccc6[nH]cnc6c5)nc4c3)nc2c1
qualifying.sign: =
value.observed: 4.55
--
sample.smiles: c1ccc(-c2ccc3[nH]c(-c4ccc5[nH]c(-c6ccc7[nH]cnc7c6)nc5c4)nc3c2)nc1
qualifying.sign: =
value.observed: 5.24

###

# Relative concentration annotations
System: DNA topoisomerase 1 (Bos taurus)
Assay: The compound was tested for topoisomerase-1 mediated DNA cleavage, activity is expressed as REC(relative effective concentration) i.e., concentration relative to Hoechst 33342.

sample.smiles: N#Cc1ccc2[nH]c(-c3ccc4[nH]cnc4c3)nc2c1
Relative concentration: 1000

sample.smiles: COc1ccc(-c2nc3cc(-c4nc5cc(C#N)ccc5[nH]4)ccc3[nH]2)cc1
Relative concentration: 3.3

sample.smiles: c1ccc(-c2ccc3[nH]c(-c4ccc5[nH]c(-c6ccc7[nH]cnc7c6)nc5c4)nc3c2)cc1
Relative concentration: 2

sample.smiles: c1cc(-c2ccc3[nH]c(-c4ccc5[nH]c(-c6ccc7[nH]cnc7c6)nc5c4)nc3c2)ccn1
Relative concentration: 2

sample.smiles: CCCc1ccc2[nH]c(-c3ccc4[nH]c(-c5ccc6[nH]cnc6c5)nc4c3)nc2c1
Relative concentration: 100

sample.smiles: c1ccc(-c2ccc3[nH]c(-c4ccc5[nH]c(-c6ccc7[nH]cnc7c6)nc5c4)nc3c2)nc1
Relative concentration: 3.3

sample.smiles: N#Cc1ccc2[nH]c(-c3ccc4[nH]c(-c5ccc6[nH]cnc6c5)nc4c3)nc2c1
Relative concentration: 1

sample.smiles: c1cncc(-c2ccc3[nH]c(-c4ccc5[nH]c(-c6ccc7[nH]cnc7c6)nc5c4)nc3c2)c1
Relative concentration: 2

sample.smiles: COc1ccc(-c2nc3cc(-c4nc5cc(-c6nc7cc(C#N)ccc7[nH]6)ccc5[nH]4)ccc3[nH]2)cc1
Relative concentration: 1000

sample.smiles: c1ccc2[nH]c(-c3ccc4[nH]c(-c5ccc6[nH]cnc6c5)nc4c3)nc2c1
Relative concentration: 1.1
